- assay_overview: AUC (0 to t) in Sprague-Dawley rat at 5 mg/kg, po by LC-tandem mass spectrometry analysis
- Format: ADME, organism-based
- condition_details: in vivo
assay_metric: AUC(0-t) (ng·h/mL)
One number for each entry, in ng·h/mL.

[in] AUC(0-t) for O=C(Nc1cccc(Br)c1)Nc1cc(Oc2ccc3nc(NC(=O)C4CC4)sc3c2)ccc1F ?
[out] 7010

====

- Tested on: HT-29
- assay_overview: Anti-necroptotic activity in human HT-29 cells assessed as inhibition of […]/SM-164/Z-VAD-fmk-induced necroptosis measured after 16 hrs by celltiter-glo luminescent cell viability assay
- condition_details: HT-29, 16 h
Binarize EC50 at 0.6 µM; below is 1, at or above is -1.

Solved cases (5 shown):
chemical_string=O=C(Cc1cccc(O)c1)Nc1cc(Oc2ccc3nc(NC(=O)C4CC4)sc3c2)ccc1F test_target=HT-29 assigned_label=-1
chemical_string=O=C(Cc1ccc(F)c(C(F)(F)F)c1)Nc1cc(Oc2ccc3nc(NC(=O)C4CC4)sc3c2)ccc1F test_target=HT-29 assigned_label=1
chemical_string=N#Cc1cccc(CC(=O)Nc2cc(Oc3ccc4nc(NC(=O)C5CC5)sc4c3)ccc2F)c1 test_target=HT-29 assigned_label=-1
chemical_string=CCC(=O)Nc1nc2ccc(Oc3ccc(F)c(NC(=O)Cc4cccc(C(F)(F)F)c4)c3)c(C#N)c2s1 test_target=HT-29 assigned_label=-1
chemical_string=N#Cc1c(Oc2ccc(F)c(NC(=O)Cc3cccc(C(F)(F)F)c3)c2)ccc2nc(NC(=O)c3ccccc3)sc12 test_target=HT-29 assigned_label=-1

[in] Does this molecule meet the criterion EC50 < 0.6 µM? O=C(CCc1cccc(C(F)(F)F)c1)Nc1cc(Oc2ccc3nc(NC(=O)C4CC4)sc3c2)ccc1F
[out] -1

[in] Does this molecule meet the criterion EC50 < 0.6 µM? O=C(Cc1ccccn1)Nc1cc(Oc2ccc3nc(NC(=O)C4CC4)sc3c2)ccc1F
[out] -1

[in] Does this molecule meet the criterion EC50 < 0.6 µM? Cc1cccc(CC(=O)Nc2cc(Oc3ccc4nc(NC(=O)C5CC5)sc4c3)ccc2F)c1
[out] 1

[in] Does this molecule meet the criterion EC50 < 0.6 µM? N#Cc1c(Oc2ccc(F)c(NC(=O)Cc3ccc([N+](=O)[O-])cc3)c2)ccc2nc(NC(=O)C3CC3)sc12
[out] -1

[in] Does this molecule meet the criterion EC50 < 0.6 µM? CC(=O)c1cccc(NC(=O)Nc2cc(Oc3ccc4nc(NC(=O)C5CC5)sc4c3)ccc2F)c1
[out] -1

[in] Does this molecule meet the criterion EC50 < 0.6 µM? O=C(Nc1nc2ccc(Oc3ccc(F)c(NCc4ccc5c(c4)OCO5)c3)cc2s1)C1CC1
[out] -1

[in] Does this molecule meet the criterion EC50 < 0.6 µM? O=C(Nc1nc2ccc(Oc3ccc(F)c(NCc4cccc(C(F)(F)F)c4)c3)cc2s1)C1CC1
[out] -1

[in] Does this molecule meet the criterion EC50 < 0.6 µM? O=C(Cc1ccccc1C(F)(F)F)Nc1cc(Oc2ccc3nc(NC(=O)C4CC4)sc3c2)ccc1F
[out] -1

[in] Does this molecule meet the criterion EC50 < 0.6 µM? O=C(Cc1cccc(OC(F)(F)F)c1)Nc1cc(Oc2ccc3nc(NC(=O)C4CC4)sc3c2)ccc1F
[out] 1

[in] Does this molecule meet the criterion EC50 < 0.6 µM? Cc1cccc(NC(=O)Nc2cc(Oc3ccc4nc(NC(=O)C5CC5)sc4c3)ccc2F)c1
[out] 1

[in] Does this molecule meet the criterion EC50 < 0.6 µM? O=C(Cc1cccc(C(F)(F)F)n1)Nc1cc(Oc2ccc3nc(NC(=O)C4CC4)sc3c2)ccc1F
[out] 1

[in] Does this molecule meet the criterion EC50 < 0.6 µM? O=C(Nc1cccc(Br)c1)Nc1cc(Oc2ccc3nc(NC(=O)C4CC4)sc3c2)ccc1F
[out] 1

[in] Does this molecule meet the criterion EC50 < 0.6 µM? COc1cccc(CC(=O)Nc2cc(Oc3ccc4nc(NC(=O)C5CC5)sc4c3)ccc2F)c1
[out] 1

[in] Does this molecule meet the criterion EC50 < 0.6 µM? N#Cc1c(Oc2ccc(F)c(NC(=O)Cc3cccc(F)c3)c2)ccc2nc(NC(=O)C3CC3)sc12
[out] -1

[in] Does this molecule meet the criterion EC50 < 0.6 µM? O=C(Cc1cccc(C(F)(F)F)c1F)Nc1cc(Oc2ccc3nc(NC(=O)C4CC4)sc3c2)ccc1F
[out] 1

[in] Does this molecule meet the criterion EC50 < 0.6 µM? O=C(Cc1cc(C(F)(F)F)cc(C(F)(F)F)c1)Nc1cc(Oc2ccc3nc(NC(=O)C4CC4)sc3c2)ccc1F
[out] -1

[in] Does this molecule meet the criterion EC50 < 0.6 µM? N#Cc1c(Oc2ccc(F)c(NC(=O)Cc3cccc(C(F)(F)F)c3F)c2)ccc2nc(NC(=O)C3CC3)sc12
[out] -1

====

- assay_overview: Half-life in Sprague-Dawley rat at 1 mg/kg, iv by LC-tandem mass spectrometry analysis
- Format: ADME, organism-based
- condition_details: in vivo
assay_metric: half-life (h)
One number for each entry, in h.

[in] half-life for O=C(Nc1cccc(Br)c1)Nc1cc(Oc2ccc3nc(NC(=O)C4CC4)sc3c2)ccc1F ?
[out] 15.4

====

Parameter Kd, tested on Receptor-interacting serine/threonine-protein kinase 3 (Homo sapiens), listed per item.
Sequence (Q9Y572 whole entry): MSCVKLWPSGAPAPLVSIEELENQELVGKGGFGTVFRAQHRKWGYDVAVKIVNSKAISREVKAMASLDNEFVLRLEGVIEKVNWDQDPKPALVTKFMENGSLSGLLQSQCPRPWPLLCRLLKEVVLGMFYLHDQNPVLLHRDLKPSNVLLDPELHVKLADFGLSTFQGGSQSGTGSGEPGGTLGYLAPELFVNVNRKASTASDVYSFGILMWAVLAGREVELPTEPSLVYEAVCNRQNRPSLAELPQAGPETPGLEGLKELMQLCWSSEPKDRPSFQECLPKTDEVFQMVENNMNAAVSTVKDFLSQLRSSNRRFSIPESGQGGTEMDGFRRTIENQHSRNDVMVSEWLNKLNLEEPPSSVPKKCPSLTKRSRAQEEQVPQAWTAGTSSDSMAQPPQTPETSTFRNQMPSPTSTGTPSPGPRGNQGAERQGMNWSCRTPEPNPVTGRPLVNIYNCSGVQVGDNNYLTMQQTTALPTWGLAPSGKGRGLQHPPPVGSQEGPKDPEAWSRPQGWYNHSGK
Give bare numbers, in nM.

chemical_string=O=C(Cc1cccc(C(F)(F)F)n1)Nc1cc(Oc2ccc3nc(NC(=O)C4CC4)sc3c2)ccc1F reported=280

Take each entry in turn and give its Kd.
1. Cc1cccc(CC(=O)Nc2cc(Oc3ccc4nc(NC(=O)C5CC5)sc4c3)ccc2F)c1
2. O=C(Cc1cccc(OC(F)(F)F)c1)Nc1cc(Oc2ccc3nc(NC(=O)C4CC4)sc3c2)ccc1F

[out]
[33, 120]

Take each entry in turn and give its Kd.
1. O=C(Cc1cccc([N+](=O)[O-])c1)Nc1cc(Oc2ccc3nc(NC(=O)C4CC4)sc3c2)ccc1F
2. CCOC(=O)c1cccc(NC(=O)Nc2cc(Oc3ccc4nc(NC(=O)C5CC5)sc4c3)ccc2F)c1

[out]
1: 110; 2: 72

====

- assay_overview: Cmax in Sprague-Dawley rat at 5 mg/kg, po by LC-tandem mass spectrometry analysis
- Assay type: ADME, organism-based
- Parameters: dose 5 mg/kg, route oral
- condition_details: in vivo
assay_metric: Cmax

[in] Cmax for O=C(Nc1cccc(Br)c1)Nc1cc(Oc2ccc3nc(NC(=O)C4CC4)sc3c2)ccc1F ?
[out] 345 ng/mL

====

Provide the recorded Kd for the entries that follow.
- test_target: Receptor-interacting serine/threonine-protein kinase 1 (Homo sapiens, UniProt Q13546)
- Sequence (Q13546 whole entry): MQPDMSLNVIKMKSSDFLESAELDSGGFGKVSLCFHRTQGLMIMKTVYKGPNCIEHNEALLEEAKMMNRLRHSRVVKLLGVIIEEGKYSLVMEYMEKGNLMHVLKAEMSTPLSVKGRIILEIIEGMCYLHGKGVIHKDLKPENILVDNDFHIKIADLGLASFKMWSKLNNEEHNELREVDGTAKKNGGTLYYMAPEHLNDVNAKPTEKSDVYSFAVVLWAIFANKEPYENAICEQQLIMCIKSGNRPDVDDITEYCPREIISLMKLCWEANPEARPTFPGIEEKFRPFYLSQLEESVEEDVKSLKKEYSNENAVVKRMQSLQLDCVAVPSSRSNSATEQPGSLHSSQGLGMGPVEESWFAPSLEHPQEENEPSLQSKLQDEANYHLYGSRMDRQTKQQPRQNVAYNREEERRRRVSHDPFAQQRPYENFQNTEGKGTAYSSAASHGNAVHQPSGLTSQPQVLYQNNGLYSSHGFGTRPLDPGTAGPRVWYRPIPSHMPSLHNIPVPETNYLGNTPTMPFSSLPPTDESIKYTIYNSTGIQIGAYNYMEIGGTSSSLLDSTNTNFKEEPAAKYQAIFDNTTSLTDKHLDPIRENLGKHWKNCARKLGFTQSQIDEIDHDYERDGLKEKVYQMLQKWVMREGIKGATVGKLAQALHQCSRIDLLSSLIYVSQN
One number for each entry, in nM.

Example entries and their recorded answers appear below.
chemical_string=Cn1cc(CC(=O)Nc2cc(Oc3ccc4nc(NC(=O)C5CC5)sc4c3)ccc2F)c2ccccc21 assay_metric=Kd reported=4800
chemical_string=O=C(Cc1ccc2c(c1)OCO2)Nc1cc(Oc2ccc3nc(NC(=O)C4CC4)sc3c2)ccc1F assay_metric=Kd reported=1100

Take each entry in turn and give its Kd.
1. N#Cc1c(Oc2ccc(F)c(NC(=O)Cc3cccc(C(F)(F)F)c3)c2)ccc2nc(NC(=O)C3CC3)sc12
2. Cc1ccc(CC(=O)Nc2cc(Oc3ccc4nc(NC(=O)C5CC5)sc4c3)ccc2F)cc1C
3. O=C(Cc1cccc(C(F)(F)F)n1)Nc1cc(Oc2ccc3nc(NC(=O)C4CC4)sc3c2)ccc1F
4. COc1cccc(NC(=O)Nc2cc(Oc3ccc4nc(NC(=O)C5CC5)sc4c3)ccc2F)c1

[out]
1: 480; 2: 1200; 3: 220; 4: 3600
